Biological target: CaV1.2 (L-type voltage-dependent calcium channel; CACNA1C, CACNB2, CACNA2D1) (Homo sapiens, UniProt Q13936)
Construct: expressed in transfected cells; host or cells: CHO
Sequence (Q13936 1-2138 isoform Q13936-12): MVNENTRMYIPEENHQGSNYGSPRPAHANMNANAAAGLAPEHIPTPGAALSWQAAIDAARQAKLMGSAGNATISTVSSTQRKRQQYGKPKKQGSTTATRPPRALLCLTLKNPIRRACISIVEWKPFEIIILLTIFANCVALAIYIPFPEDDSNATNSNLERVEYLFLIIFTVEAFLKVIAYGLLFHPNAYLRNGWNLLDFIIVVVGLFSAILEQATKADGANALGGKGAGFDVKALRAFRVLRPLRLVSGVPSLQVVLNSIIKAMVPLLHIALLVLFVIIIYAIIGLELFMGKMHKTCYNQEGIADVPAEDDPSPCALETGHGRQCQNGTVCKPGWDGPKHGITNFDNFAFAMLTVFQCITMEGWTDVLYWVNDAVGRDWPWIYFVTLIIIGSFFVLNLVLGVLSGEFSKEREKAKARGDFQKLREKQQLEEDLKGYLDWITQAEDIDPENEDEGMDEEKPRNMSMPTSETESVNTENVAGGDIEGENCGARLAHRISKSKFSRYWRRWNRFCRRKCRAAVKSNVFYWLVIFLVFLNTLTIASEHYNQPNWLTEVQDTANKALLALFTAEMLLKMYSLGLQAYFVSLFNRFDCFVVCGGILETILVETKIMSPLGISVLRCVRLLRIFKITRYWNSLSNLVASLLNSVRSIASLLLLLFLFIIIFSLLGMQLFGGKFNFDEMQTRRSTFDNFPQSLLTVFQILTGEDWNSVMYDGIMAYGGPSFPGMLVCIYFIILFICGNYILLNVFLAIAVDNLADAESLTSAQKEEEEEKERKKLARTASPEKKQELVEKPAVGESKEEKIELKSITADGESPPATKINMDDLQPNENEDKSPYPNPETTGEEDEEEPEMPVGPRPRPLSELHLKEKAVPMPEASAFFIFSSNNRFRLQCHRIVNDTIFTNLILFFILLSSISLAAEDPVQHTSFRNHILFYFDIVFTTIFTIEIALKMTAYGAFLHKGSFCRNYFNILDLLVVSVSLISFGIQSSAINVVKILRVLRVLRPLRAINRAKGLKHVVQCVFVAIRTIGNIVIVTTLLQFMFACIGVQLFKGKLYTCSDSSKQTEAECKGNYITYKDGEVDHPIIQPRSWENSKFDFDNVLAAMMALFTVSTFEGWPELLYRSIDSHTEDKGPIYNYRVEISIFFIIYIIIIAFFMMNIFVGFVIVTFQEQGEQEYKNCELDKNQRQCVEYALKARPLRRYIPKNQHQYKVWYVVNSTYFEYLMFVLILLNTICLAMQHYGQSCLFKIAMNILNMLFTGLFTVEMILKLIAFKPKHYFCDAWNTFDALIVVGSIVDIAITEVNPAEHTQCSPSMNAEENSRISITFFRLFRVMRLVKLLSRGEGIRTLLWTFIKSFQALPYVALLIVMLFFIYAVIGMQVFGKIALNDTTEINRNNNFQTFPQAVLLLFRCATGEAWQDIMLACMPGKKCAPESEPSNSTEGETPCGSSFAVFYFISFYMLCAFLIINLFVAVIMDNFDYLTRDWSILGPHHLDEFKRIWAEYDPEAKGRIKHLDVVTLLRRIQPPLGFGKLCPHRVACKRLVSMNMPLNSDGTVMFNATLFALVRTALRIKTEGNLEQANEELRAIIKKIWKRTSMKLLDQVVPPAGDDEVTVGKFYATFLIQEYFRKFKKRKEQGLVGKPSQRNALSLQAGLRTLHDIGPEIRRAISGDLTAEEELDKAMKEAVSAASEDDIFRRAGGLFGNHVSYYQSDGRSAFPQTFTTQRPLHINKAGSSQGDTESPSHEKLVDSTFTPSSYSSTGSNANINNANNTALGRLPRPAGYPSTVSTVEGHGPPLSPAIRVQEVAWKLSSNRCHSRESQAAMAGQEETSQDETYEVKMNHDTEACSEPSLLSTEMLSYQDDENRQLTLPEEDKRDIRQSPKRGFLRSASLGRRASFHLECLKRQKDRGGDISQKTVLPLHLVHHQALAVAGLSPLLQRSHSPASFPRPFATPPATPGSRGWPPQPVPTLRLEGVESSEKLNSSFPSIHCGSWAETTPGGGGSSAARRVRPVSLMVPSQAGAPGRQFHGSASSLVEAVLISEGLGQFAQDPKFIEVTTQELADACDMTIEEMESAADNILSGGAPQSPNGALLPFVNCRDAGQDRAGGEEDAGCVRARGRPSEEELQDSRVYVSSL
Sequence (Q08289 1-605 isoform Q08289-2 partner): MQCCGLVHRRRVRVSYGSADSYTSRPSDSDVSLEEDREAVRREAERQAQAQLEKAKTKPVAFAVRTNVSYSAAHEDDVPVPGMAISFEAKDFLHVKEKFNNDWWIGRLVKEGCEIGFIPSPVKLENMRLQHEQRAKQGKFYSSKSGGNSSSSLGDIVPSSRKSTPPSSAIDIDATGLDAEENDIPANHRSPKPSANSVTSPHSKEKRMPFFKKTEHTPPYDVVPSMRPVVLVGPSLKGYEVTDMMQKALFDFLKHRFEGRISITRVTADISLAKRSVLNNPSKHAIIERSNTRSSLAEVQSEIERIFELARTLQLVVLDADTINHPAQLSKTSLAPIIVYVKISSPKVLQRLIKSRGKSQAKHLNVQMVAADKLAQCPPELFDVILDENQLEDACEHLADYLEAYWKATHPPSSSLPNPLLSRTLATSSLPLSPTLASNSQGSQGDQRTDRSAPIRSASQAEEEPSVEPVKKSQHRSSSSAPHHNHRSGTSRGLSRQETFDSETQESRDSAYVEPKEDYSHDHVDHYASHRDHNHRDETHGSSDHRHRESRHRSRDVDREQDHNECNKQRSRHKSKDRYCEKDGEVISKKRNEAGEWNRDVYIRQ
Sequence (P54289 25-1091 isoform P54289-2 partner limits assumed): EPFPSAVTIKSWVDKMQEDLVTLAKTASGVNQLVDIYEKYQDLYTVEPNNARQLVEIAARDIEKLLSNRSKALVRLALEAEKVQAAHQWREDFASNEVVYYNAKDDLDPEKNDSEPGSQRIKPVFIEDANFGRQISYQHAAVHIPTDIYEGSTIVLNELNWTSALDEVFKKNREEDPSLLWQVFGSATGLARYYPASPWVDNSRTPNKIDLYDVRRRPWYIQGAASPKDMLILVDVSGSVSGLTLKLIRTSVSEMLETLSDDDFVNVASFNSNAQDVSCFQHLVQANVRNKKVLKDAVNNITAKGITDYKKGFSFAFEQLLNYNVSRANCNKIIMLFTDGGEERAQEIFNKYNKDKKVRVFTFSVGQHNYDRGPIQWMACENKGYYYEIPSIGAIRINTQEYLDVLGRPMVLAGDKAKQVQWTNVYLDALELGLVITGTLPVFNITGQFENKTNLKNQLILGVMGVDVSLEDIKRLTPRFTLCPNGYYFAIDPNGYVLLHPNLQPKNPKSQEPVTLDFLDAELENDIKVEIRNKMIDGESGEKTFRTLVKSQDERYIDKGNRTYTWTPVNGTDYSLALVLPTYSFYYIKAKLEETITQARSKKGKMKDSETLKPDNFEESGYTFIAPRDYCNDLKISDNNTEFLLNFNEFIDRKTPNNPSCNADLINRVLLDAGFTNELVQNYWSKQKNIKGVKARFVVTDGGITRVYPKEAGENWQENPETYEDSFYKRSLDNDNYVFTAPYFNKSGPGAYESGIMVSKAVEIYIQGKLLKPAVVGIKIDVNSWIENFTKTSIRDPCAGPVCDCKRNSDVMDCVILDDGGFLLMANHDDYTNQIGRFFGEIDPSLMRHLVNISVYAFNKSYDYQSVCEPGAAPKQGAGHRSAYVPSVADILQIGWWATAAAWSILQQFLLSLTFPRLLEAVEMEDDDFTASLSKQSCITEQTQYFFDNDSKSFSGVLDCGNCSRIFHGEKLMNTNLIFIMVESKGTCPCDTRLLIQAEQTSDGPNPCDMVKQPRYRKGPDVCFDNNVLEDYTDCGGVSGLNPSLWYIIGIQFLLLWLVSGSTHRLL
Sequence (P54289 957-1103 partner limits assumed): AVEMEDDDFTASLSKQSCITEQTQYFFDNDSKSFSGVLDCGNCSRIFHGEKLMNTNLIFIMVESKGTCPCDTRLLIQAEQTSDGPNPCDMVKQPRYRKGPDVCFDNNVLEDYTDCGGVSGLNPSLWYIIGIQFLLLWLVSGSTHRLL
Test: CaV1.2 channel whole-cell patch clamp (Ion Channel Activity Measurement)
Format: cell-based
Conditions: human, pH 7.4, 10 μM test article, room temperature, read-out: CaV 1.2 10 μM (ion-channel inhibition)
Structures can show the parent of a compound that is named as a salt.
Provide the recorded inhibition at 5 min, 10 μM for the entries that follow.

GET /value?item= `Nc1ccc2ccccc2c1Cc1c(O)ccc2ccccc12` &field=inhibition at 5 min, 10 μM returns < 25%

GET /value?item= `CN(c1c(O)ccc2ccccc12)c1c(O)ccc2ccccc12` &field=inhibition at 5 min, 10 μM returns 25 to 50%

GET /value?item= `COc1cccc(C2CCNCC2)c1Cc1c(OC)cccc1C1CCNCC1` &field=inhibition at 5 min, 10 μM returns 50 to 75%

GET /value?item= `CCN(CC)CCCOc1ccc2ccccc2c1Cc1c(O)ccc2ccccc12` &field=inhibition at 5 min, 10 μM returns 75 to 100%

GET /value?item= `CS(=O)(=O)Nc1ccc2ccccc2c1Cc1c(NS(C)(=O)=O)ccc2ccccc12` &field=inhibition at 5 min, 10 μM returns < 25%

GET /value?item= `Oc1ccc2ccccc2c1Cc1c(O)ccc2ccncc12` &field=inhibition at 5 min, 10 μM returns 50 to 75%

GET /value?item= `CS(=O)(=O)Nc1cc2ccccc2cc1Cc1c(NS(C)(=O)=O)ccc2ccccc12` &field=inhibition at 5 min, 10 μM returns 25 to 50%

GET /value?item= `COc1ccc(COCc2ccc3ccccc3c2C(O)c2c(COCc3ccc(OC)cc3)ccc3ccccc23)cc1` &field=inhibition at 5 min, 10 μM returns 25 to 50%

GET /value?item= CCN(CC)CCOc1c(C(C)C)cc2ccccc2c1Cc1c(O)c(C(C)C)cc2ccccc12 [Compound A102, hydrochloride Salt] &field=inhibition at 5 min, 10 μM returns 75 to 100%
